System tested: Adrenergic β2 (Homo sapiens, UniProt P07550)
Construct: Adherent H292 cells were removed from tissue culture flasks; endogenous in cells; host or cells: H292 cells
Sequence (P07550 whole entry): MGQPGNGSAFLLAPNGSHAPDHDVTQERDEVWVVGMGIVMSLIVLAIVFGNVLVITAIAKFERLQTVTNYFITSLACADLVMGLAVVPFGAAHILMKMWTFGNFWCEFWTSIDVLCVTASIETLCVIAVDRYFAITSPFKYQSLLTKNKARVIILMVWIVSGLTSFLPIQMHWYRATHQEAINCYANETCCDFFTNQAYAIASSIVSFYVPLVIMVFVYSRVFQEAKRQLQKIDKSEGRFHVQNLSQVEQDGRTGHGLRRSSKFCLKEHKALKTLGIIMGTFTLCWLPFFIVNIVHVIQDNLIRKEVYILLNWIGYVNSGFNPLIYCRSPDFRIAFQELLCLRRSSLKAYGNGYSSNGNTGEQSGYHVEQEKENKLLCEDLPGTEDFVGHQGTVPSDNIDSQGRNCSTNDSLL
Assay: Adrenergic β2 mediated cAMP production in H292 cells (AlphaScreen cAMP detection)
Assay type: cell-based
Condition label: Intrinsic Activity, fraction relative to the maximum activity determined for formoterol
Counter-ions that a name gives are not always drawn.
Reported β2 Int Act values for a set of compounds
Write the value as a bare number.

// worked examples, β2 Int Act included
* O=C(CCNCCc1cccc(Cl)c1)N(CCNCCc1ccc(O)c2[nH]c(=O)sc12)C1CCOCC1 [Example 22, bis-trifluoroacetic acid salt] | 0.96
* O=C(CCNCCc1ccc(O)c2[nH]c(=O)sc12)N(CCNCCc1ccc(O)c2[nH]c(=O)sc12)C1CCCCCC1 [Example 87, bis-trifluoroacetic acid salt] | 0.72
* COc1ccc(CCNCCC(=O)N(CCNCCc2ccc(O)c3[nH]c(=O)sc23)C2CCCCCC2)cc1OC [Example 86, bis-trifluoroacetic acid salt] | 0.43
* O=C(CCNCCc1ccc(F)c(F)c1)N(CCNCCc1ccc(O)c2[nH]c(=O)sc12)C1CCCCCC1 [Example 53, bis-trifluoroacetic acid salt] | 0.74
* O=C(CCNCCc1cccc(F)c1)N(CCNCCc1ccc(O)c2[nH]c(=O)sc12)C1CCCCC1 [Example 96, dihydrobromide salt] | 0.85

// next item, β2 Int Act requested
Give the measured β2 Int Act of O=C(CCNCCc1ccccn1)N(CCNCCc1ccc(O)c2[nH]c(=O)sc12)C1CCCCC1 [Example 33, bis-trifluoroacetic acid salt] .
0.78

----------
System tested: Adrenergic β2 (Homo sapiens, UniProt P07550)
Construct: Adherent H292 cells were removed from tissue culture flasks; endogenous in cells; host or cells: H292 cells
Assay: Adrenergic β2 mediated cAMP production in H292 cells (AlphaScreen cAMP detection)
Assay type: cell-based
Condition label: Intrinsic Activity, fraction relative to the maximum activity determined for formoterol
Method: Adrenergic β2 Mediated cAMP Production H292 cells were grown in 225 cm2 flasks incubator at 37° C., 5% CO2 in RPMI medium containing, 10% (v/v) FBS (foetal bovine serum) and 2 mM L-glutamine. […] The concentration of cAMP (cyclic adenosine monophosphate) in the cell lysate was determined using AlphaScreen™ methodology. […] Intrinsic Activity was expressed as a fraction relative to the maximum activity determined for formoterol in each experiment.
Structures can show the parent of a compound that is named as a salt.
Okay, here is how we bin by β2 Int Act: low interval = under 0.6, middle interval = from 0.6 up to 0.8, high interval = 0.8 and over

As a guide, the following entries are already answered.
• O=C(CCNCCc1cccc(C(F)(F)F)c1)N(CCNCCc1ccc(O)c2[nH]c(=O)sc12)C1CCCCCC1 [Example 82, bis-trifluoroacetic acid salt] = high interval
• CC(=O)OCC(C)(C)CN(CCNCCc1ccc(O)c2[nH]c(=O)sc12)C(=O)CCNCCc1ccc(Cl)cc1 [Example 39, acetate diacetic acid salt] = low interval
• O=C(CCNCCc1ccc2c(c1)OCCO2)N(CCNCCc1ccc(O)c2[nH]c(=O)sc12)C1CCCCCC1 [Example 88, bis-trifluoroacetic acid salt] = low interval
• O=C(CCNCCc1ccc(F)c(F)c1)N(CCNCCc1ccc(O)c2[nH]c(=O)sc12)C1CCCCC1 [Example 73, bis-trifluoroacetic acid salt] = high interval
• CC(C)(C)CN(CCNCCc1ccc(O)c2[nH]c(=O)sc12)C(=O)CCNCCc1ccc(Cl)c(Cl)c1 [Example 9, bis-trifluoroacetic acid salt] = middle interval

Band of C[C@H](CNCCC(=O)N(CCNCCc1ccc(O)c2[nH]c(=O)sc12)C1CCCC1)c1ccccc1 [Example 31, bis-trifluoroacetic acid salt] ?
high interval

Band of CC(C)(Cc1ccccc1)NCCC(=O)N(CCNCCc1ccc(O)c2[nH]c(=O)sc12)C1CCCCC1 [Example 19, bis-trifluoroacetic acid salt] ?
middle interval

Band of O=C(CCNCCc1nc2ccccc2[nH]1)N(CCNCCc1ccc(O)c2[nH]c(=O)sc12)C1CCCCC1 [Example 77, tris-trifluoroacetic acid salt] ?
low interval

Band of O=C(CCNCCC(F)(F)F)N(CCNCCc1ccc(O)c2[nH]c(=O)sc12)C1CCCCC1 [Example 80, bis-trifluoroacetic acid salt] ?
high interval
